Compiled record: pIC50 values for 5-hydroxytryptamine receptor 1A (Rattus norvegicus, UniProt P19327) across several sources.
- Tested target: 5-hydroxytryptamine receptor 1A (Rattus norvegicus, UniProt P19327)
- Sequence (P19327 whole entry): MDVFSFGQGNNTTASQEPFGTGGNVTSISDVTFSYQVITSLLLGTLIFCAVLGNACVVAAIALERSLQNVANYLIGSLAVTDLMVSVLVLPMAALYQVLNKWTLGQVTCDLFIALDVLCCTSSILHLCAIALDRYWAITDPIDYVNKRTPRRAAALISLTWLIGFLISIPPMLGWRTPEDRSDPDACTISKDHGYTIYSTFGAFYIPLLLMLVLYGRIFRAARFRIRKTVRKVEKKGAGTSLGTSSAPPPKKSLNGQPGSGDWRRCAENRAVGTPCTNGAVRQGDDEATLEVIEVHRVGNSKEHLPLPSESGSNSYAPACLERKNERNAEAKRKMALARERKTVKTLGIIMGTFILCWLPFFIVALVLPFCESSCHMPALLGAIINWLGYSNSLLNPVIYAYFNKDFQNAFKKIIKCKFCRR
Quick note: pIC50 means taking -log10 of the concentration in moles per liter.

Task: Give a short answer stating reported pIC50 for O=C1CSCN1CCCCN1CCN(c2nc3ccccc3s2)CC1 .
Output: 6.44

Task: Give a short answer stating reported pIC50 for O=C(NCCN1CCN(c2cc(F)cc(F)c2)CC1)c1cnc2ccccc2n1 .
Output: 5.94

Task: Give a short answer stating reported pIC50 for CC1SCC(=O)N1CCCCN1CCN(c2cccc(Cl)c2)CC1 (stereo unspecified) .
Output: 8.00

Task: Give a short answer stating reported pIC50 for OC1(c2ccc3c(c2)OCO3)CCC(N2CCN(Cc3ccc(F)c(F)c3)CC2)CC1 (stereo unspecified) .
Output: 7.47

Task: Give a short answer stating reported pIC50 for CN1CCN(c2nc3ccccc3n3cccc23)CC1 .
Output: 7.05

Task: Give a short answer stating reported pIC50 for O=C1CSCN1CCCCN1CCN(c2cccc(Cl)c2)CC1 .
Output: 7.24

Task: Give a short answer stating reported pIC50 for COc1cccc2c1C(CCCN1CCN(c3cccc(C(F)(F)F)c3)CC1)=CCC2 .
Output: 7.25

Task: Give a short answer stating reported pIC50 for CC1=COc2ccccc2C(=O)N1CCCCN1CCN(c2ncccn2)CC1 .
Output: 7.99

Task: Give a short answer stating reported pIC50 for O=C1Cc2ccccc2C(=O)N1CCCCN1CCN(c2nsc3ccccc23)CC1 .
Output: 8.74

Task: Give a short answer stating reported pIC50 for CC(C)(C)OC(=O)Nc1cccc(C(=O)NCCCCN2CCN(c3nsc4ccccc34)CC2)c1.Cl .
Output: 7.92

Task: Give a short answer stating reported pIC50 for O=C1c2ccccc2C(=O)N1C/C=C\CN1CCN(c2nsc3ccccc23)CC1 .
Output: 7.62
